target: TXA2 receptors (Homo sapiens); construct: endogenous in cells; test: human platelet binding assay ([^125 I]PTA-OH receptor ligand); conditions: 50% inhibition of specific [^125 I]PTA-OH binding
Sequence (P21731 whole entry): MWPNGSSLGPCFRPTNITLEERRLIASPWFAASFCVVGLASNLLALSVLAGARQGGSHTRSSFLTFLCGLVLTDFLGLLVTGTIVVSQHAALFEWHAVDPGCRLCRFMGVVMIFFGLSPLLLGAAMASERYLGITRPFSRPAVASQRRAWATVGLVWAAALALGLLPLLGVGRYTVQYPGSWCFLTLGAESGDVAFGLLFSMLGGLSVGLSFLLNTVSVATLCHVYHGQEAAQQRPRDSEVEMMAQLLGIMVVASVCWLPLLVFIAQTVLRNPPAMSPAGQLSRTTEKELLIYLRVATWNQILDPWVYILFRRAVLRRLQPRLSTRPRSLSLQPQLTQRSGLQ
Where a name gives a salt, the structure may show the parent alone.
With a cut-off of 4 µM, any IC50 strictly below it is called Satisfied; any IC50 meeting it or above is called Not satisfied.

                                    molecule  qualitative_label
 0  O=C(O)CCCN1CCc2ccc(S(=O)(=O)Nc3ccccc3)cc2C1          Satisfied
 1  CCOC(=O)CCCCN1CCc2ccc(S(=O)(=O)Nc3cccc(Cl)c3)cc2C1 [Example 3a, hydrochloride]          Satisfied
 2  O=C(O)CCN1CCc2ccc(S(=O)(=O)Nc3cccc(Cl)c3)cc2C1      Not satisfied
 3  O=C(O)C#CCN1CCc2ccc(S(=O)(=O)Nc3cccc(Cl)c3)cc2C1          Satisfied
 4  O=C(O)CCCN1CCc2c(cccc2NS(=O)(=O)c2ccccc2)C1 [Example 9, hydrochloride]      Not satisfied
 5  O=C(O)CCCN1CCc2cc(NS(=O)(=O)c3ccccc3)ccc2C1      Not satisfied
 6  O=C(O)CCCCN1CCc2c(cccc2NS(=O)(=O)c2ccccc2)C1 [Example 10, hydrochloride]      Not satisfied
 7  O=C(O)CCCCN1CCc2ccc(S(=O)(=O)Nc3cccc(Cl)c3)cc2C1          Satisfied
 8  O=C(O)CCCCCN1CCc2ccc(S(=O)(=O)Nc3cccc(Cl)c3)cc2C1          Satisfied
 9  O=C(O)CCCN1CCc2ccc(S(=O)(=O)Nc3ccc(Cl)cc3)cc2C1      Not satisfied
10  O=C(O)CCCCN1CCc2ccc(S(=O)(=O)Nc3ccccc3)cc2C1      Not satisfied
11  O=C(O)CCCN1CCc2ccc(S(=O)(=O)Nc3cccc(C(F)(F)F)c3)cc2C1          Satisfied
12  O=C(O)CCCCN1CCc2ccc(NS(=O)(=O)c3ccccc3)cc2C1      Not satisfied
13  O=C(O)CCCN1CCc2ccc(S(=O)(=O)Nc3cccc(Cl)c3)cc2C1          Satisfied
14  O=C(O)CN1CCc2ccc(NS(=O)(=O)c3ccccc3)cc2C1 [Example 13, hydrochloride]      Not satisfied
15  CCCCC(C(=O)O)N1CCc2ccc(NS(=O)(=O)c3ccccc3)cc2C1 (stereo not shown) [Example 14, hydrochloride]      Not satisfied

// provenance: patent US4812573A
